# Target System: T1, human GIP receptor (human) (UniProt P48546)
# T1 sequence (looked up): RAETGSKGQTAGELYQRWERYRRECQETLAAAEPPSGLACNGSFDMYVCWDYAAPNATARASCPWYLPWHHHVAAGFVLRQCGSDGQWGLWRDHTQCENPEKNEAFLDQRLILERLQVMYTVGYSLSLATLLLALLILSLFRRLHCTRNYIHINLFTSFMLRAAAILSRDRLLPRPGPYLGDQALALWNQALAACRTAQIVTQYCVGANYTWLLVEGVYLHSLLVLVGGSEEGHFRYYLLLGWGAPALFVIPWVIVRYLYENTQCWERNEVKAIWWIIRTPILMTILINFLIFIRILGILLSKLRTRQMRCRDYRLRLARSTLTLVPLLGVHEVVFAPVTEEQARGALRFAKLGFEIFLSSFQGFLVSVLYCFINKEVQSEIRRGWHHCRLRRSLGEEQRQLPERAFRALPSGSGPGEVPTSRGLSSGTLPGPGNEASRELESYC
# Assay Overview: cell-based or functional assay
Reported Property: log10 cAMP Rel EC50 (in the presence of 1% HSA) (log10 of the value in nM)
Friendly reminder: values = log10 of cAMP Rel EC50 (in the presence of 1% HSA), unit nM.

Which log10 cAMP Rel EC50 (in the presence of 1% HSA) value belongs to YXQGTXTSDXXIXLDXKAQXEFIEXLIEGGPSSGEPPPSGE (non-natural residues; Lys acylated C18 diacid; C-terminal amide; synthetic construct; SITE 2: note = 2-Aminoisobutyric Acid; SITE 6: note = alpha-methyl-2-fluoro-L-phenylalanine; SITE 10: note = 3-(4-Pyridyl)-L-alanine; SITE 11: note = alpha-methyl-L-serine; SITE 13: note = alpha-methyl-leucine; SITE 16: note = L-ornithine; SITE 17: note = Lysine is chemically mo) [Example 1177] ?
-0.26

Quick one: YXQGTFTSDFSKXLDKKAQXAFIEYLLAGGPSSGEPPPSEG (synthetic construct; SITE 2: note = 2-Aminoisobutyric Acid; SITE 13: note = alpha-methyl-leucine; SITE 17: note = Lysine is chemically modified through conjugation of the epsilon-amino group of the Lysine side chain with (2-[2-(2-Amino-ethoxy)-ethoxy]-acetyl)-(gamma-Glu)-CO-(CH2) 18-CO2H; SITE 20: n) [Example 1]
1.87

Quick one: YXQGTXTSDXXIXLDXKAQXEFIEXLVEGGPSSGEPPPTGE (not fully specified; Aib, αMeF(2F), 4Pal, αMeS, αMeL, Orn, Me4Pal, αMeY, acyl, amide; synthetic construct; SITE 2: note = 2-Aminoisobutyric Acid; SITE 6: note = alpha-methyl-2-fluoro-L-phenylalanine; SITE 10: note = 3-(4-Pyridyl)-L-alanine; SITE 11: note = alpha-methyl-L-serine; SITE 13: note = alpha-methyl-leucine; SITE 16: note = L-ornithine; SITE 17: note = Lysine is chemically mo) [Example 1153]
0.14

Quick one: YXQGTFTSDFSKXLDKKAQXAFIEWLIEGGPSSGAPPPSEG (synthetic construct; SITE 2: note = 2-Aminoisobutyric Acid; SITE 13: note = alpha-methyl-leucine; SITE 17: note = Lysine is chemically modified through conjugation of the epsilon-amino group of the Lysine side chain with (2-[2-(2-Amino-ethoxy)-ethoxy]-acetyl)-(gamma-Glu)-CO-(CH2) 18-CO2H; SITE 20: n) [Example 40]
1.88

Quick one: YXQGTXTSDXXIXLDXKAQXEFIEXLVEGGPSSGEPPPGGE (not fully specified; Aib, αMeF(2F), 4Pal, Me4Pal, Orn; lipidated Lys; C-terminal amide; synthetic construct; SITE 2: note = 2-Aminoisobutyric Acid; SITE 6: note = alpha-methyl-2-fluoro-L-phenylalanine …; SITE 10: note = 3-(4-Pyridyl)-L-alanine; SITE 11: note = alpha-methyl-L-serine; SITE 13: note = alpha-methyl-leucine; SITE 16: note = L-ornithine; SITE 17: note = Lysine is chemically mo) [Example 1155]
-0.05

Quick one: YXQGTFTSDXSKXLDKKAQXAFIEYLIEXGESSGAPPPSGS (non-natural residues, acylated Lys, C-terminal amide; synthetic construct; SITE 2: note = 2-Aminoisobutyric Acid; SITE 10: note = 3-(4-Pyridyl)-L-alanine; SITE 13: note = alpha-methyl-leucine; SITE 17: note = Lysine is chemically modified through conjugation of the epsilon-amino group of the Lysine side chain with (2-[2-(2-Amino-ethoxy)-ethoxy]-acetyl)) [Example 280]
1.19
